From: patent US6737383B1

Tested on: purple nutsedge
TEST_SUMMARY: Test B pre/postemergence purple nutsedge
Type: in vivo, Cyperus rotundus
MEASUREMENT_SETUP: Postemergence, Rate 125 g/ha; scale of 0 to 10 where 0 is no effect and 10 is complete control
MEASURED_METRIC: Nutsedge plant response rating
Form field (numeric): enter value without unit.

Data request: What does the data say about its Nutsedge plant response rating? Entry: CC(C)N(C(=O)n1oc(=O)n(Cc2nnc(Cl)s2)c1=O)c1ccc(Cl)cc1
Data returned: 0

Data request: What does the data say about its Nutsedge plant response rating? Entry: CCOC(=O)CC(C(=O)OCC)n1c(=O)on(C(=O)N(c2ccc(Cl)cc2)C(C)C)c1=O (stereo not shown)
Data returned: 0

Data request: What does the data say about its Nutsedge plant response rating? Entry: Cc1onc(-c2ccccc2)c1-n1c(=O)on(C(=O)N(c2ccc(F)cc2)C(C)C)c1=O
Data returned: 0

Data request: What does the data say about its Nutsedge plant response rating? Entry: Cc1ccc(N(C(=O)n2oc(=O)n(C(C)C)c2=O)C(C)C)cc1
Data returned: 2

###

Please respond with reported Blackgrass plant response rating for every item in the list.
Tested on: blackgrass
TEST_SUMMARY: Test B pre/postemergence blackgrass
Type: in vivo, Alopecurus myosuroides
MEASUREMENT_SETUP: Preemergence, Rate 31 g/ha; visual rating, scale 0 to 10 (0 no effect, 10 complete control)

Data request: What does the data say about its Blackgrass plant response rating? Entry: Cc1onc(-c2ccccc2)c1-n1c(=O)on(C(=O)N(c2ccc(F)cc2)C(C)C)c1=O [Compound 100]
Data returned: 0

Data request: What does the data say about its Blackgrass plant response rating? Entry: C=CCn1c(=O)on(C(=O)N(c2ccc(F)cc2)C(C)C)c1=O [Compound 146]
Data returned: 7

Data request: What does the data say about its Blackgrass plant response rating? Entry: CC(C)N(C(=O)n1oc(=O)n(CCc2ccccc2)c1=O)c1ccc(F)cc1 [Compound 250]
Data returned: 0

Data request: What does the data say about its Blackgrass plant response rating? Entry: CC(C)N(C(=O)n1oc(=O)n(C2(C)CC2)c1=O)c1ccc(F)cc1 [Compound 362]
Data returned: 8

###

Please respond with reported Giant foxtail plant response rating for every item in the list.
System: giant foxtail
TEST_SUMMARY: Test B pre/postemergence giant foxtail
Type: in vivo, Setaria faberii
MEASUREMENT_SETUP: Postemergence, Rate 125 g/ha; scale of 0 to 10 where 0 is no effect and 10 is complete control
Form field (numeric): enter value without unit.

Data request: What does the data say about its Giant foxtail plant response rating? Entry: CC(C)N(C(=O)n1oc(=O)n(CCN(C)C(=O)c2ccccc2)c1=O)c1ccccc1
Data returned: 0

Data request: What does the data say about its Giant foxtail plant response rating? Entry: CC(C)N(C(=O)n1oc(=O)n(CCCC#N)c1=O)c1ccc(F)cc1F
Data returned: 9

Data request: What does the data say about its Giant foxtail plant response rating? Entry: CN(C(=O)n1oc(=O)n(Cc2ccccc2)c1=O)c1ccccc1
Data returned: 0

###

System: sugar beet
TEST_SUMMARY: Test B pre/postemergence sugar beet
Type: in vivo, Beta vulgaris
MEASUREMENT_SETUP: Preemergence, Rate 125 g/ha; 0 is no effect, 10 is complete control
MEASURED_METRIC: Sugarbeets plant response rating (0 to 10 scale)
Form field (numeric): enter value without unit.

Data request: What does the data say about its Sugarbeets plant response rating (0 to 10 scale)? Entry: C=CCn1c(=O)on(C(=O)N(c2ccc(F)cc2)C(C)C)c1=O [Compound 146]
Data returned: 9

Data request: What does the data say about its Sugarbeets plant response rating (0 to 10 scale)? Entry: CN(C(=O)n1oc(=O)n(Cc2ccccc2)c1=O)c1ccccc1 [Compound 153]
Data returned: 0

Data request: What does the data say about its Sugarbeets plant response rating (0 to 10 scale)? Entry: CCN(C(=O)n1oc(=O)n(N(C)c2ccccc2)c1=O)C1CCCCC1 [Compound 183]
Data returned: 0

Data request: What does the data say about its Sugarbeets plant response rating (0 to 10 scale)? Entry: CC(C)N(C(=O)n1oc(=O)n(C(C)c2ccccc2)c1=O)c1ccc(Cl)cc1 (centres unmarked) [Compound 133]
Data returned: 2

Data request: What does the data say about its Sugarbeets plant response rating (0 to 10 scale)? Entry: COc1ccccc1Cn1c(=O)on(C(=O)N(c2ccc(F)cc2)C(C)C)c1=O [Compound 143]
Data returned: 1

Data request: What does the data say about its Sugarbeets plant response rating (0 to 10 scale)? Entry: CC(C)N(C(=O)n1oc(=O)n(C(C)(C)C)c1=O)c1ccccc1 [Compound 129]
Data returned: 3

Data request: What does the data say about its Sugarbeets plant response rating (0 to 10 scale)? Entry: CC(C)N(C(=O)n1oc(=O)n(C(C)C)c1=O)c1ccc(F)cc1F [Compound 109]
Data returned: 10

Data request: What does the data say about its Sugarbeets plant response rating (0 to 10 scale)? Entry: CC(C)N(C(=O)n1oc(=O)n(CC2CO2)c1=O)c1ccc(F)cc1 (centres unmarked) [Compound 188]
Data returned: 0

Data request: What does the data say about its Sugarbeets plant response rating (0 to 10 scale)? Entry: CC(C)N(C(=O)n1oc(=O)[nH]c1=O)c1ccc(F)cc1 [Compound 164]
Data returned: 0

Data request: What does the data say about its Sugarbeets plant response rating (0 to 10 scale)? Entry: CCN(Cc1ccncc1)C(=O)n1oc(=O)n(C(C)C)c1=O [Compound 189]
Data returned: 0

Data request: What does the data say about its Sugarbeets plant response rating (0 to 10 scale)? Entry: CC(C)N(C(=O)n1oc(=O)n([C@@H](C)c2ccccc2)c1=O)c1ccccc1 [Compound 173]
Data returned: 2
